FYI, the data here is from PubChem BioAssay.

target_under_test: Streptavidin (Streptomyces avidinii)
procedure_details: compounds binding control protein streptavidin – biophysical, small-molecule microarray, 635/667 nm fluorescence, artefact control for SMM compound annotation, primary screen (AID 1147);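 also: signal reflects streptavidin binding to arrayed compounds as a control protein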
study_conditions: higher = more signal
Would you kindly list composite z-score for each of these compounds?

- compound: "CC(C)C(O)C1C=CC2C(=O)N(c3ccccc3)C(=O)C2N1Nc1ccccc1 (stereo not drawn)"
  composite z-score: 0.874

Could I get composite z-score for every one of these entries?
1. O=C1N(CCS(=O)(=O)c2ccccc2)c2ccccc2[C@H]2OC(c3ccc(OCCCO)cc3)=N[C@@]12Cc1ccccc1
2. O=C(NCc1ccc(F)cc1)[C@H]1C[C@H]2C(=O)NCC(=O)N2[C@H]1c1ccc(O)cc1

[reply]
[0.274, -0.311]

Provide the reported composite z-score of each entry below, same order.
1. CO[C@H]1O[C@H](CO)[C@@H](OC(=O)Nc2ccccc2)[C@H](OC(=O)c2cc3ccccc3[nH]2)[C@H]1OC(=O)c1cc2ccccc2[nH]1
2. C=C[C@H]1C(C(=O)OCC)=CC[C@@H](c2ccccc2)N1S(=O)(=O)c1ccc(C)cc1
3. CCCC=C(CCC)[C@@H](NP(=O)(c1ccccc1)c1ccccc1)c1ccc(-c2ccccc2)cc1
4. COc1ccc(CCNC(=O)[C@@H]2c3ccccc3C(=O)N(C3CCCCC3)[C@H]2c2ccc(CO)cc2)cc1
5. Cc1ccc(NN2C(C(O)c3c(F)cccc3Cl)C=CC3C(=O)N(C4CCCCC4)C(=O)C32)cc1 (stereo not drawn)

[reply]
1. -0.265
2. 0.767
3. 1.09
4. -0.11
5. 1.75

---

procedure_details: compound effects on multiple myeloma cell viability – MM1S, calcein-AM fluorescence, 48 h, basal, profiling panel (AID 1165);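 also: viability of MM1S multiple myeloma cells under basal unstimulated conditions; test concentration not given here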
study_conditions: higher = more signal
Short version: z-score at least 0.008 is Yes, less is No.

- compound: "Cc1ccc(S[C@]2(C(=O)NCC(F)(F)F)CC(=O)N(Cc3cc(C(F)(F)F)cc(C(F)(F)F)c3)[C@@H]2c2ccc(CO)cc2)cc1"
  category: "No"
- compound: "CCCC=C(CCC)[C@@H](NC(=O)c1cccs1)c1ccc(C(=O)OC)cc1"
  category: "Yes"
- compound: "COCC(=C=CC[C@H](O)c1ccc(OCCO)cc1)CCO"
  category: "No"
- compound: "C=C(COC)/C(=C/C[C@H](OC(=O)c1ccncc1)c1ccccc1OCCO)c1cc(C(=O)OC)ccc1OC"
  category: "No"

Proceed to the following item.
[ask] Hello, I need to know if COc1ccc([Si](C)(C)[C@@H]2[C@@H](CCO)O[C@]3(C(=O)N(Cc4ccccc4)c4ccc(NC(=O)[C@H](C)O)cc43)[C@H]2C)cc1 has measured z-score not below 0.008. Thanks!
[reply] No

---

Please respond with reported composite z-score for every item in the list.
target_under_test: Streptavidin (Streptomyces avidinii)
procedure_details: compounds binding control protein streptavidin – biophysical, small-molecule microarray, 635/667 nm fluorescence, artefact control for SMM compound annotation, primary screen (AID 1147);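 also: signal reflects streptavidin binding to arrayed compounds as a control protein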
study_conditions: higher = more signal

Solved entries (count: 4):
- compound: "CCOC(=O)C[C@H]1[C@H](OC(=O)c2ccc(C(=O)c3ccccc3)cc2)[C@@H](NC(=O)C2CCCCC2)c2cc(OCCCO)ccc2N1C(=O)c1ccc2ccccc2n1"
  observed_measurement: 0.731
- compound: "CCCCC(O)C1C=CC2C(=O)N(C)C(=O)C2N1N(c1ccccc1)c1ccccc1 (stereo not drawn)"
  observed_measurement: 0.971
- compound: "CCCCNC(=O)c1ccc(C#CC(C)(C)C)c(OC(C)=O)c1"
  observed_measurement: 1.01
- compound: "[N-]=[N+]=NCc1ccccc1[C@@H]1OC(c2ccc(OCCCO)cc2)=N[C@]1(CCS(=O)(=O)c1ccccc1)C(=O)O"
  observed_measurement: 0.659

Provide reported composite z-score for each item, in the same order as listed.
1. COC(=O)C1=CC(CCCO)=CC(c2cccs2)N(Cc2cccc(OC(F)(F)F)c2)C=C1C(=O)OC (stereo not drawn)
2. O=C(O)[C@@H]1C[C@@H]2C(=O)N3CCC[C@H]3C(=O)N2[C@@H]1c1ccc(O)cc1
3. [N-]=[N+]=Nc1ccccc1C[C@@]1(C(=O)N2CCOCC2)N=C(c2ccc(OCCCO)cc2)O[C@@H]1c1ccccc1
4. CCOC(=O)C[C@H]1[C@H](OC(=O)c2ccc(C(=O)c3ccccc3)cc2)[C@@H](NC(=O)CC(C)C)c2cc(OCCCO)ccc2N1C(=O)c1ccccc1

[reply]
[1.93, 0.262, 0.269, 1.17]

---

target_under_test: Fibroblast growth factor 10 (Homo sapiens)
procedure_details: compounds binding fibroblast growth factor 10 – biochemical, small-molecule microarray, 635 nm fluorescence, primary screen (AID 1102)
study_conditions: FGF10 binding, fluorescence 635 nm, higher = more signal
Given measured composite z-score, output yes if it is greater than or equal to 0.3 and no if not.

- compound: "CCOC(=O)C[C@H]1[C@H](OC(=O)c2ccc(-c3ccccc3)cc2)[C@@H](NC(=O)CC(C)C)c2cc(OCCCO)ccc2N1C(=O)c1ccc2ccccc2n1"
  target_under_test: "Fibroblast growth factor 10 (Homo sapiens)"
  category: "yes"
- compound: "CCCC[C@@H](O)C1=C(COc2ccccc2)C[C@H]2C(=O)N(Cc3ccccc3)C(=O)[C@H]2[C@H]1CO"
  target_under_test: "Fibroblast growth factor 10 (Homo sapiens)"
  category: "yes"
- compound: "CCCN1C(=O)[C@]2(Cc3ccccc31)N=C(c1ccc(OCCCO)cc1)O[C@@H]2c1ccccc1"
  target_under_test: "Fibroblast growth factor 10 (Homo sapiens)"
  category: "yes"
- compound: "CC(CO)N1C(=O)[C@]2(C)C3C(=O)OCCC/C=C\\[C@H]3OC23C=CCN(c2ccc(Cl)cc2)C(=O)[C@@H]13 (stereo partly drawn)"
  target_under_test: "Fibroblast growth factor 10 (Homo sapiens)"
  category: "no"
- compound: "CCCCC[C@H]1OC[C@@]23C=C(Br)[C@@H](CC12)[C@@]1(CO1)C3=O (stereo partly drawn)"
  target_under_test: "Fibroblast growth factor 10 (Homo sapiens)"
  category: "no"

[ask] Quick check, composite z-score >= 0.3? CC(c1ccccc1)C(O)C1C=CC2C(=O)N(C)C(=O)C2N1Nc1ccccc1 (stereo not drawn)
[reply] yes

[ask] Decide: composite z-score of NC(=O)NCC#Cc1ccc2c(c1)[C@]1(C(=O)N2)[C@H](c2ccccc2OCCO)N2[C@H](c3ccccc3)[C@H](c3ccccc3)OC(=O)[C@H]2[C@@H]1C(=O)O >= 0.3?
[reply] no

---

Exercise: state measured composite z-score for each of the compounds provided.
System: Sam68 (KHDRBS1)
procedure_details: compounds binding KHDRBS1 protein – biochemical, small-molecule microarray, 635 nm fluorescence, primary screen (AID 1125);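 also: score merges 667 nm channel intensity with signal to noise over triplicate slides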
study_conditions: higher = more signal
Numbers only.

- compound: "COCCOC(=O)N1C(=O)[C@@]2(c3cc(C#CC4(O)CCCCCC4)ccc31)[C@H](C(=O)Nc1nc3ccccc3s1)[C@H]1C(=O)O[C@H](c3ccccc3)[C@H](c3ccccc3)N1[C@@H]2c1ccc(O)cc1"
  target_under_test: "Sam68 (KHDRBS1)"
  composite z-score: 1.3
- compound: "O=C1[C@H]2C=C(I)[C@H](C[C@@H]2OCCOCCO)[C@@]12CO2"
  target_under_test: "Sam68 (KHDRBS1)"
  composite z-score: 0.807

Hello, I would appreciate it if you could give composite z-score for each entry below.
1. COCCCNC(=O)[C@@H]1c2ccccc2C(=O)N(C(C)C)[C@H]1c1ccc(CO)cc1
2. CCCCN1CC=CC23O[C@@H]4/C=C\CCC(C)OC(=O)C4[C@H]2C(=O)N(CCCO)[C@@H]3C1=O (some centres not stated)
3. Cc1ccc(F)cc1S(=O)(=O)N[C@@H]1CCN(Cc2ccc(Br)cc2)C1
4. CCCCN1CC=CC23O[C@@H]4/C=C\CCCOC(=O)C4[C@H]2C(=O)N(CCO)[C@@H]3C1=O (some centres not stated)
5. O=C(Cc1ccccc1)[C@H]1C2C=CCCC(c3ccccc3)=C2CN1Cc1ccccc1 (some centres not stated)

[reply]
0.0457
-0.62
-0.811
0.109
-0.299

---

For each record, write down the corresponding z-score.
procedure_details: viability profiling in RPMI8226 myeloma cells – cell-based, resazurin fluorescence, basal, 24 h, PK04 Diversity Set, profiling panel (AID 1180);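 also: RPMI8826 multiple myeloma cell line at 5000 cells per well; test concentration not given here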
study_conditions: higher = more signal
Give bare numbers.

Guide cases for z-score, answers given:
- compound: "COC(=O)[C@@]1(Cc2ccc(F)cc2)[C@H]2c3cc(C(=O)N(C)C)n(CCc4ccc(OC)c(Br)c4)c3C[C@H]2CN1C(=O)c1ccccc1"
  endpoint_name: "z-score"
  observed_measurement: -5.69
- compound: "COCCOC(=O)N1C(=O)[C@@]2(c3cc(C#CCCO)ccc31)[C@H](C(=O)Nc1nc3ccccc3s1)[C@H]1C(=O)O[C@H](c3ccccc3)[C@H](c3ccccc3)N1[C@@H]2c1ccc(O)cc1"
  endpoint_name: "z-score"
  observed_measurement: -0.358
- compound: "CC1=C2[C@@H](CCc3ccccc3)OB(O)C[C@@H]2[C@@H]2C(=O)N(Cc3ccccc3)C(=O)[C@@H]2C1"
  endpoint_name: "z-score"
  observed_measurement: -0.26

[ask] Which z-score is listed for COc1cc(C(O)C2C=CC3C(=O)N(C)C(=O)C3N2Nc2ccccc2)cc(OC)c1OC (centres undefined) ?
[reply] -0.0998
